test system: NCI-H23 lung; experiment: NCI tumour cell line growth inhibition, 48 h
MEASURED METRIC: TGI (µM)
API: value field is a number in µM; no unit string.

STRUCTURE AS SMILES: C[C@@H]1CC[C@@H]2[C@@H]1[C@H](OC(=O)c1ccc3ccccc3c1)[C@]1(C3CCCCC3)C[C@@H](OC(=O)CO)[C@@]2(C)O1
OBSERVED RESULT: 33.2
//
STRUCTURE AS SMILES: c1ccc2c(-c3cnn4cc(-c5ccc(N6CCNCC6)cc5)cnc34)ccnc2c1
OBSERVED RESULT: 3.05

Query string: Requested field: TGI. Item: "O=C(NCCNC(=O)c1ccc(F)cc1)Nc1ccc(-n2cc(-c3ccncc3)c(-c3ccc(Cl)c(O)c3)n2)cc1"
Result string: 7.77

====

Measured TGI accompanies every entry in the list below.
system: SW-620 colon; assay: NCI tumour cell line growth inhibition, 48 h

COMPOUND: Cc1ccc(N(/C=C/C(=O)C(F)(F)F)CC(=O)c2ccc(Cl)c(Cl)c2)cc1
TGI: 15.2 µM

COMPOUND: CCP(C)(C)=O
TGI: > 100 µM

COMPOUND: Cc1ncc([N+](=O)[O-])n1CCNC(=O)Cn1ccnc1[N+](=O)[O-]
TGI: > 100 µM

COMPOUND: NC(=S)N/N=C1\CC(c2ccccc2)Nc2ccccc21 (stereo unspecified)
TGI: > 100 µM

COMPOUND: CC(=O)Oc1cc(/C=C/c2ccc(O)cc2)cc(OC(C)=O)c1
TGI: > 100 µM

Query string: Requested field: TGI. Item: "Cc1nnc2n1N=C(c1ccc(-c3ccc([N+](=O)[O-])cc3)o1)CS2"
Result string: > 100 µM

====

tested on: NCI-H460 lung; test: NCI tumour cell line growth inhibition, 48 h
Measured TGI accompanies every entry in the list below.

These recorded examples may help you get a feel for the data.
MOLECULE: COc1ccc(C(=O)C/C(=N/NC(N)=S)C(=O)Nc2ccccc2)cc1
MEASURED METRIC: TGI
OBSERVED RESULT: > 100 µM
//
MOLECULE: N#CCCN(CCCN(C(=O)Nc1ccc(NC(=O)N(CCCN(CCC#N)C(N)=O)c2ccccc2)cc1)c1ccccc1)C(N)=O
MEASURED METRIC: TGI
OBSERVED RESULT: > 100 µM
//
MOLECULE: CCOC(=O)Nc1ccc(C(=O)/C=C/c2ccccc2)cc1
MEASURED METRIC: TGI
OBSERVED RESULT: > 100 µM

Query string: Requested field: TGI. Item: "O=C(/C=C/c1ccc(O)cc1)c1cc(-c2cc(CCC(=O)c3ccc(O)cc3O)ccc2O)c(O)cc1O"
Result string: > 50 µM

Query string: "O=C([CH-]C(=O)c1ccccc1)c1ccccc1.[CH3-].[CH3-].[CH3-].[Sn+4]" , same question.
Result string: > 100 µM

Query string: COc1cc(/C=C2\NC(=S)C3Cc4c(OC)c(C)c(OC)c(OC)c4C2N3C)c(OC)c(C)c1OC (stereo not given) , same question.
Result string: 30 µM

Query string: CCOC(=O)C(C)c1nc2cc(C(F)(F)F)ccc2[nH]c1=O (stereo not given) , same question.
Result string: > 100 µM

Query string: "Cc1nc2ccccc2c(=O)n1/N=C(\N=Nc1ccccc1Cl)c1ccccc1" , same question.
Result string: > 100 µM

====

tested on: PC-3 prostate; assay: NCI tumour cell line growth inhibition, 48 h; in the data active = GI50 below about 0.43 µM; inactive = the rest
The reply should name one outcome from class 1 = active, class 0 = inactive

Before answering, review these 4 worked examples.
COMPOUND: COc1ccc(C2SCC(=O)N2NC(=O)C(O)c2ccccc2)cc1 (centres undefined)
LABEL: class 0

COMPOUND: C=C1[C@@H](O)C[C@H]2C(C)(C)C[C@H](Cl)C[C@]2(C)[C@H]1C[C@H](O)[C@H]1CC(=O)NC1=O
LABEL: class 1

COMPOUND: CC(C)c1ccc(/C=N/N=C(N)N)cc1
LABEL: class 0

COMPOUND: C[C@@H]1CC[C@@H]2[C@@H]1[C@H](OC(=O)c1ccc3ccccc3c1)[C@]1(C3CCCCC3)C[C@@H](OC(=O)CO)[C@@]2(C)O1
LABEL: class 0

Query string: # outcome recorded in this test, key = N#CSCC1CC(O)(c2ccccc2)CC(c2ccc(Cl)cc2)O1 (centres undefined)
Result string: class 0

Query string: CC1=C/C(O)CC(=O)Cc2nc(co2)C(=O)N2CCC=C2C(=O)OC(C(C)C)C(C)/C=C\C(=O)NC/C=C\1 (centres undefined) , same question.
Result string: class 0

Query string: "c1ccc2c(-c3cnn4cc(-c5ccc(N6CCNCC6)cc5)cnc34)ccnc2c1" , same question.
Result string: class 1

Query string: "C[n+]1cc2cc3c(cc2c2ccccc21)OCO3" , same question.
Result string: class 0

Query string: CC(=O)[O][Hg][CH2]C1(C)COC(C)([CH2][Hg][O]C(C)=O)CO1 (centres undefined) , same question.
Result string: class 0

====

test system: HT29 colon; assay: NCI tumour cell line growth inhibition, 48 h
MEASURED METRIC: TGI

COMPOUND: Oc1c(Cl)cc(CN(Cc2cc(Cl)c(O)c(Cl)c2)C2CCCCC2)cc1Cl
TGI: > 100 µM

Query string: Requested field: TGI. Item: COc1ccc(OC2OC(CO)C(O)C(O)C2O)cc1 (stereo unspecified)
Result string: > 100 µM

Query string: CNC(C)[C@H]1CCC2C3CCC4C[C@@H](N(C)C(=O)c5ccccc5)CC[C@]4(C)C3CC[C@@]21C (stereo partly specified) , same question.
Result string: 1.23 µM

Query string: "COC(=O)/C=C/c1ccc2c(c1)[C@H](C(=O)OC)[C@@H](c1ccc(O)cc1)O2" , same question.
Result string: > 100 µM

Query string: N#CSCC1CC(O)(c2ccccc2)CC(c2ccc(Cl)cc2)O1 (stereo unspecified) , same question.
Result string: 8.74 µM

Query string: CC(C)(C)CN1[C@@H]2CCCC[C@H]2N(CC(C)(C)C)P1(=O)C(O)/C=C/c1ccccc1 (stereo partly specified) , same question.
Result string: > 100 µM

====

system: HOP-62 NSCLC; assay: NCI tumour cell line growth inhibition, 48 h; in the data active = GI50 below about 0.43 µM; inactive = the rest
The reply should name one outcome from y (active), n (inactive)

STRUCTURE AS SMILES: Cc1cc(S(=O)(=O)Nc2nc3ccccc3[nH]2)c(SCc2ccccc2)cc1Cl
LABEL: n

STRUCTURE AS SMILES: CCOC(=O)Nc1ccc(C(=O)/C=C/c2ccccc2)cc1
LABEL: n

STRUCTURE AS SMILES: CCCC(=O)O[C@]1(C)CC[C@@H]2[C@H]3[C@@H]1[C@@H]1C/C(C)=C\CC[C@](C)(OC(=O)[C@@H]2C)[C@H]3O1
LABEL: n

STRUCTURE AS SMILES: C[n+]1cc2cc3c(cc2c2ccccc21)OCO3
LABEL: n

STRUCTURE AS SMILES: NC(=NCCO)c1ccc(N2CCCN(c3ccc(C(N)=NCCO)cc3)CC2)cc1
LABEL: n

STRUCTURE AS SMILES: N=C1N=C(N)S/C1=C\c1ccc2ncccc2c1
LABEL: n

# input for lookup
Query string: # outcome recorded in this test, key = "CCOc1ccc2c(c1)C(=O)c1c-2n(CCCN)c(=O)c2cc([N+](=O)[O-])ccc12"
Result string: y

====

Measured TGI accompanies every entry in the list below.
test system: SNB-75 CNS; assay: NCI tumour cell line growth inhibition, 48 h
*1 amine or outer side, *2 acyl side, *3 side chain or, on linkers, in order; H or OH if unused. Where a SMILES comes first, the peptide text is derived from it. Bridges are numbered along the chain shown (N, C = ends). [ ]: non-standard residue; d: D form. X59 = COc1c(N[*:1])cccc1C(=O)O[C@H](C(=O)[C@H](C)C(=O)[*:2])C(C)C; X58 = CC(C)C[C@H](C(=O)[*:2])C(C)C(=O)C1CCCN1[*:1]; NMeY = CN[C@@H](Cc1ccc(O)cc1)C(=O)O; Lac = C[C@H](O)C(=O)O

These recorded examples may help you get a feel for the data.
COMPOUND: CCCCCCCCc1ccc(CCC(N)(CO)CO)cc1
MEASURED ON: SNB-75 CNS
MEASURED METRIC: TGI
OBSERVED RESULT: 4.2 µM
//
COMPOUND: COc1ccc(C[C@H]2C(=O)O[C@H](C)[C@H](NC(=O)[C@@H](CC(C)C)C(C)C(=O)C3CCCN3C(=O)[C@H](C)O)C(=O)Nc3cccc(c3OC)C(=O)O[C@@H](C(C)C)C(=O)[C@H](C)C(=O)N[C@@H](CC(C)C)C(=O)N3CCC[C@H]3C(=O)N2C)cc1 (some centres undefined) (H-[Lac][X58]T[X59]LP[NMeY](Me); ester 3-C)
MEASURED ON: SNB-75 CNS
MEASURED METRIC: TGI
OBSERVED RESULT: > 12.5 µM
//
COMPOUND: CN(C)CCN=C1Nc2ccccc2C(=O)N2CSCC12 (centres undefined)
MEASURED ON: SNB-75 CNS
MEASURED METRIC: TGI
OBSERVED RESULT: > 100 µM
//
COMPOUND: CC(C)(C)CN1[C@@H]2CCCC[C@H]2N(CC(C)(C)C)P1(=O)C(O)/C=C/c1ccccc1 (some centres undefined)
MEASURED ON: SNB-75 CNS
MEASURED METRIC: TGI
OBSERVED RESULT: > 100 µM
//
COMPOUND: N=C(N)SCCN1CCCCC1
MEASURED ON: SNB-75 CNS
MEASURED METRIC: TGI
OBSERVED RESULT: 94.1 µM
//
COMPOUND: COc1cc(O)c2c(=O)c(OC)c(-c3ccc(OC)c(OC)c3)oc2c1.[Zn+2]
MEASURED ON: SNB-75 CNS
MEASURED METRIC: TGI
OBSERVED RESULT: 8.79 µM
//
COMPOUND: O=[N+]([O-])c1cc2ccc1OCc1cccc(n1)COc1ccc(cc1[N+](=O)[O-])C=NCCCCCCCCN=C2
MEASURED ON: SNB-75 CNS
MEASURED METRIC: TGI
OBSERVED RESULT: > 100 µM
//
COMPOUND: NC(=S)N/N=C/c1ccc(OC(=O)COc2ccccc2)cn1
MEASURED ON: SNB-75 CNS
MEASURED METRIC: TGI
OBSERVED RESULT: > 100 µM
//
COMPOUND: CC(=O)N1N=C(c2ccc(Nc3nc(Nc4ccc(F)cc4)nc(Nc4ccc(Cl)cc4)n3)cc2)CC1c1ccc(N(C)C)cc1 (centres undefined)
MEASURED ON: SNB-75 CNS
MEASURED METRIC: TGI
OBSERVED RESULT: 20.3 µM
//
COMPOUND: CC1(C)Cc2nnsc2C2=C1C(=O)CCS2
MEASURED ON: SNB-75 CNS
MEASURED METRIC: TGI
OBSERVED RESULT: > 100 µM

Query string: Requested field: TGI. Item: "O=C(O)c1cc2cc(O)ccc2[nH]1"
Result string: > 100 µM

Query string: "Cn1nc(S(N)(=O)=O)s/c1=N/S(=O)(=O)c1ccc(N)cc1" , same question.
Result string: > 100 µM

Query string: "O=S1(=O)c2ccccc2-c2nccc3ccnc1c23" , same question.
Result string: 83.7 µM

Query string: CC(=O)OCC1OC(n2c(=S)n(-c3ccccc3)c(=S)c3ccccc32)C(OC(C)=O)C(OC(C)=O)C1OC(C)=O (centres undefined) , same question.
Result string: > 100 µM
